Biological target: T1, S. mutans ComD histidine kinase receptor (Streptococcus mutans)
T1 chain: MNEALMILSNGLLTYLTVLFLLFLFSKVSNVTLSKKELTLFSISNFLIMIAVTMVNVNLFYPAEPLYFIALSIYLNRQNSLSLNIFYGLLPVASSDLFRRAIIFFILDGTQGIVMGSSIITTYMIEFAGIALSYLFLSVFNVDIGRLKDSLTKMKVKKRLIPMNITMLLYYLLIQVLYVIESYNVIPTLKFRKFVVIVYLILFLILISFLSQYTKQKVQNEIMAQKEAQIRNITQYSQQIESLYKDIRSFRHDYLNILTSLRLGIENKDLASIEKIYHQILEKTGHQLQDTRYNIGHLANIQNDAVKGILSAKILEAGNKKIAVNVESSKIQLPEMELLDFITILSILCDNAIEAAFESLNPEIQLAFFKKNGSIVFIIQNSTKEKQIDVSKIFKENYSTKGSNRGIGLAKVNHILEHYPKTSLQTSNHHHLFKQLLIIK
Assay: cell-based or functional assay
Reported Transformation efficiency (vs 5 µg CSP), 5 µg/ml peptide, S. mutans wild-type UA159 by item:
RECORDED METRIC: Transformation efficiency (vs 5 µg CSP), 5 µg/ml peptide, S. mutans wild-type UA159 (fold decrease)

INSERT INTO measurements (binder, numeric_result) VALUES
  ('SGSLSTFFRLFNASFTQALGK [CSP peptide analog E2]', 6),
  ('SGSLSTFFRLFNRSFTQALGV [CSP peptide analog F2]', 3),
  ('SGSLSTFFVLFNRSFTQALGK [CSP peptide analog B2]', 414),
  ('SGSLSTFFRLFNRSFTQALGA [CSP peptide analog G2]', 28),
  ('SGSLSTFFRLFNRSFTQLGK [CSP peptide analog H1]', 28000),
  ('SGSLTFFRLFNRSFTQALGK [CSP peptide analog E1]', 2),
  ('SGSLSTFFRLFNRSFTQALK [CSP peptide analog F1]', 3),
  ('SGSLSTFFRLFNRSFTALGK [CSP peptide analog A2]', 7),
  ('SGSLSTFFRLFNVSFTQALGK [CSP peptide analog D2]', 16);
